Source listed as ChEMBL document CHEMBL4825728.

Molecular target: Rhomboid protease GlpG (Escherichia coli (strain K12)) (UniProt P09391)
Sequence (P09391 whole entry): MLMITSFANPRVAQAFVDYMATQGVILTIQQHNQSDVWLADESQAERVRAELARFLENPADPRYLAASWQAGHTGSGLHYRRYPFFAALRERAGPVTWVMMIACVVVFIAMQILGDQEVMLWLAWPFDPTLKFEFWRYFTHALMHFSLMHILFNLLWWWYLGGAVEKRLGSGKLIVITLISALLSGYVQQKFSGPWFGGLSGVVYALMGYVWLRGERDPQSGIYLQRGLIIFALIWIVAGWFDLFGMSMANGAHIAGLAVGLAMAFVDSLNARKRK
Experiment: Inhibition of GlpG in Escherichia coli BL21 assessed as inhibition of FP-Rh labeling at 200 uM treated with compound prior to FP-Rh addition by competitive ABPP based analysis
Active and inactive are the calls of the source. The rule behind the calls is not given here.
REPORTED_METRIC: inhibition

[[record]]
molecule = "Cc1ccc(S(=O)(=O)N[C@@H](Cc2ccccc2)C(=O)CCl)cc1"
reported_metric = "inhibition"
result = "inactive"

[[record]]
molecule = "O=S(=O)(F)Cc1ccccc1"
reported_metric = "inhibition"
result = "inactive"

[[record]]
molecule = "O=C(OCN1C(=O)c2ccccc2S1(=O)=O)c1ccccc1Cl"
reported_metric = "inhibition"
result = "100%"

[[record]]
molecule = "NCCc1ccc(S(=O)(=O)F)cc1"
reported_metric = "inhibition"
result = "inactive"

